Reported pKi values follow for various compounds
- Tested Target: bovine vesicular acetylcholine transporter (VAChT) (Bos taurus, UniProt E1BK36)
- Sequence (E1BK36 1-524): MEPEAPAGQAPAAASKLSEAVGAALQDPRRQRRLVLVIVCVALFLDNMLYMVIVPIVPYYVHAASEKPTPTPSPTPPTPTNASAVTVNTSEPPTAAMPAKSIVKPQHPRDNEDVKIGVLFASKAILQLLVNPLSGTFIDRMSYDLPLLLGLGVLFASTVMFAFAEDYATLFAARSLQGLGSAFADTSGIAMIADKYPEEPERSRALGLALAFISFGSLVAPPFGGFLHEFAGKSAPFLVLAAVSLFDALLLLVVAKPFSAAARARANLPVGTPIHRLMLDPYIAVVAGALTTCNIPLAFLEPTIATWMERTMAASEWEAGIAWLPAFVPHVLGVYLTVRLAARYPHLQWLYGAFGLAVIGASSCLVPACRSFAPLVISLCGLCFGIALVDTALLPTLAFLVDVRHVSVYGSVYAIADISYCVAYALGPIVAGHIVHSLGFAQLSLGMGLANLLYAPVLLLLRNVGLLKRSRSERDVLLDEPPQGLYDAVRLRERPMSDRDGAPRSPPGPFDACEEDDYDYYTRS
- Experimental Protocol: Radioligand Binding Assay
- Settings: Bovine binding Ki, CHO-K1 membranes with recombinant bovine VAChT, [3H]Compound X6 0.3 nM
Notebook: values listed as pKi are -log10 of the concentration (mol/L).

[
  {
    "Compound": "N#Cc1cncc(-c2ccc3c(c2)C2(CCN(C/C=C/c4ccc(Cl)cc4)CC2)CN3C(=O)NCc2ccnc(F)c2)c1 [Example 115]",
    "pKi": 5.41
  },
  {
    "Compound": "O=C(NCC1CC1)N1CC2(CCN(C/C=C/c3ccc(Cl)c(Cl)c3)CC2)c2c1ccc1scnc21 [Example 32]",
    "pKi": 6.87
  },
  {
    "Compound": "Cn1ccc(CNC(=O)N2CC3(CCN(C/C=C/c4ccc(Cl)c(Cl)c4)CC3)c3c2ccc2scnc32)n1 [Example 28]",
    "pKi": 6.29
  },
  {
    "Compound": "N#Cc1cc2c(cn1)N(C(=O)NCc1ccnc(Cl)c1)CC21CCN(C/C=C/c2ccc(Cl)c(Cl)c2)CC1 [Example 66]",
    "pKi": 7.62
  },
  {
    "Compound": "N#Cc1ccc(/C=C/CN2CCC3(CC2)CN(C(=O)NCc2ccnc(Cl)c2)c2cc(C(F)(F)F)c(Cl)cc23)cc1 [Example 72]",
    "pKi": 7.57
  },
  {
    "Compound": "O=C(NCc1ccnc(Cl)c1)N1CC2(CCN(C/C=C/c3ccc(Cl)c(Cl)c3)CC2)c2cc(C(F)(F)F)ccc21 [Example 133]",
    "pKi": 6.26
  }
]

Recorded pKi of O=C(NCc1ccnc(Cl)c1)N1CC2(CCN(C/C=C/c3ccc(Cl)c(Cl)c3)CC2)c2cc(Cl)c(C(F)(F)F)cc21 [Example 135] , please.
6.93
